assay: Metabolic stability in mouse liver microsomes (MLMs); format: in vitro ADME; details: male, CD-1, mouse, liver microsomes, pH 7.4, protein concentration 0.8, read-out: Intrinsic Clearance (Clint)
readout.name: microsomal CLint at 20 µM (µL/min/mg)
Write the value in µL/min/mg as a bare number.

Name the recorded microsomal CLint at 20 µM of the compound listed here: CCC(CN1CCN(c2ccccc2OC)CC1)NCCCOc1c(C)cccc1C.Cl.Cl (stereo not shown)
34.6

* * *

Assay: Spontaneous locomotor activity in mice
Assay type: in vivo, mouse
Conditions: mouse, in vivo; ip, mice; read-out: ED50 (locomotor activity, sedative effect)
Experimental: The locomotor activity of mice was measured as previously described. We used photoresistor actometers (Ugo Basile, Italy) connected to a counter for the recording of light-beam interruptions. Mice were placed individually in cages for 30 min, and the number of crossings of the light beams was recorded as the locomotor activity for 4 min.
readout.name: ED50 at 4 min (mg/kg)
Write the value in mg/kg as a bare number.

Name the recorded ED50 at 4 min of the compound listed here: CCC(CN1CCN(c2ccccc2OC)CC1)NCCCOc1c(C)cccc1C.Cl.Cl (stereo not shown) [HBK-10]
32.3
